z-score for assorted compounds
- methodSummary: P. aeruginosa biofilm formation inhibitors, primary screen, PAO1 strain, BacTiter-Glo luminescence, LB-PBS (AID 1144)
- experimentalSetup: 12 h, higher = more signal
Note: the reply should be a number with no unit written.

A selection of reference data follows.
compound	valueObserved
O=C1NC(=O)C2C1C=CC(C(O)c1ccc(F)cc1)N2Nc1ccc(Cl)cc1Cl (configuration not stated)	-0.762
CCCCCN1CC=CC23O[C@@H]4/C=C\CCCOC(=O)C4[C@H]2C(=O)N(CCCCCO)[C@@H]3C1=O (some centres not stated)	-0.678
CC(C)C(=C=CC[C@H](O)c1cccc(OCCO)c1)C[C@H](O)c1ccccn1	-1.06
C=C(COC)/C(=C/C[C@@H](OC(C)=O)c1cccc(OCCO)c1)c1cnc2ccccc2c1	0.0432
COCCOC(=O)N1C(=O)[C@@]2(c3cc(C#CCC(C(=O)OC)C(=O)OC)ccc31)[C@H](C(N)=O)[C@H]1C(=O)O[C@H](c3ccccc3)[C@H](c3ccccc3)N1[C@@H]2c1ccccc1OCCO	-2.59

Task: Any idea what z-score was measured for C=C(CCCC)/C(=C/C[C@@H](OC(C)=O)c1ccc(OCCO)cc1)c1cc(C(=O)OC)ccc1OC ?
Output: 0.412

Task: Any idea what z-score was measured for COC(=O)[C@@]1(Cc2ccc(OC)cc2)[C@H]2c3cc(C(=O)N(C)C)n(Cc4c(CO)[nH]cc(C)c4=O)c3C[C@H]2CN1C(=O)c1ccccc1 ?
Output: -0.357

====

- methodSummary: adipocyte viability effects, profiling panel, cell-based, 3T3-L1 adipocytes, calcein-AM fluorescence, 48 h, basal (AID 1163); note: test concentration not given here
- experimentalSetup: 3T3-L1 adipocytes viability, higher = more signal
z-score for assorted compounds

compound	z-score
COc1ccc([Si](C)(C)[C@@H]2[C@@H](CC(=O)N3Cc4ccccc4C[C@H]3CO)O[C@]3(C(=O)N(Cc4ccc(I)cc4)c4ccccc43)[C@H]2C)cc1	0.62
CO[C@H]1O[C@H](CO)[C@@H](OC(=O)Nc2cccc(F)c2)[C@H](OC(=O)c2cc3ccccc3[nH]2)[C@H]1OC(=O)c1cc2ccccc2[nH]1	0.437
COCCOC(=O)N1C(=O)[C@@]2(c3cc(C#CCC(C(=O)OC)C(=O)OC)ccc31)[C@H](C(N)=O)[C@H]1C(=O)O[C@H](c3ccccc3)[C@H](c3ccccc3)N1[C@@H]2c1ccccc1OCCO	1.27

Task: Any idea what z-score was measured for CC(C)N1C(=O)[C@@]2(Cc3ccccc31)c1ccccc1C(=O)N(Cc1ccccc1C(F)(F)F)[C@H]2c1ccc(CO)cc1 ?
Output: 0.523

Task: Any idea what z-score was measured for COc1ccc(C#Cc2ccc3c(c2)[C@]2(C(=O)N3)[C@H](c3ccccc3OCCO)N3[C@H](c4ccccc4)[C@H](c4ccccc4)OC(=O)[C@H]3[C@@H]2C(=O)NC[C@H](O)c2ccccc2)cc1 ?
Output: 0.449

====

- methodSummary: small-molecule binders of probe aNOTCH3, primary screen, biochemical, small-molecule microarray, 635/667 nm fluorescence (AID 1120);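 note: probe is a biotin-tagged antibody raised against NOTCH3 rather than NOTCH3 protein; score merges spot fluorescence near 667 nm with spot signal to noise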
- experimentalSetup: higher = more signal
composite z-score for assorted compounds

A selection of reference data follows.
smilesData	composite z-score
COC(=O)C(CC#Cc1ccc2c(c1)[C@]1(C(=O)N2)[C@H](C(N)=O)[C@H]2C(=O)O[C@H](c3ccccc3)[C@H](c3ccccc3)N2[C@@H]1c1ccccc1OCCO)C(=O)OC	-0.248
O=C1O[C@H](c2ccccc2)[C@H](c2ccccc2)N2[C@H]1[C@@H](C(=O)O)[C@]1(C(=O)Nc3ccccc31)[C@H]2c1ccc(OCCO)cc1	0.0576

Now take the following compound into account.
Task: Any idea what composite z-score was measured for O=C(c1ccccc1)N1Cc2ccccc2C[C@@]2(N=C(c3ccc(OCCCO)cc3)O[C@H]2c2ccccc2)C1=O ?
Output: 0.0193

====

composite z-score for assorted compounds
- methodSummary: binders of probe aFST on microarray, primary screen, stem cell growth factor project, biochemical, small-molecule microarray, fluorescence 635/667 (AID 1086);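 note: score merges 667 nm fluorescence with signal-to-noise of each printed compound spot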
- experimentalSetup: higher = more signal
Note: the reply should be a number with no unit written.

A selection of reference data follows.
> print(dat)
                                   compound          parameter  valueobserved
1  COCCCNC(=O)[C@@]1(Cc2ccccc2I)c2ccccc2C(=O)N(Cc2ccccc2C(F)(F)F)[C@H]1c1ccc(CO)cc1  composite z-score          0.341
2  COc1c(C)cc(-c2nc(-c3ccccc3)c3c(c2C)CO[Si]3(C(C)C)C(C)C)cc1C  composite z-score         0.0724
3       OCCCc1cc[n+](Cc2cc3c(cc2Br)OCO3)cc1  composite z-score         -0.222
4  O=C1C2C=CC(C(O)c3ccccn3)N(Nc3ccc([N+](=O)[O-])cc3)C2C(=O)N1c1ccccc1 (stereo not drawn)  composite z-score          0.512
5  CC(C)C[C@@H]1NC(=O)[C@@H]2C[C@H](C(=O)NCCCCCNC(=O)CS)[C@H](c3ccc(O)cc3)N2C1=O  composite z-score         -0.265
6  COC(=O)[C@@]1(Cc2ccc(F)cc2)[C@H]2c3cc(C(=O)N(C)C)n(Cc4cccc5ccccc45)c3C[C@H]2CN1C(=O)c1ccccc1  composite z-score          0.697
7  COC(=O)[C@@]1(Cc2ccc(F)cc2)[C@H]2c3cc(C(=O)N4CCCC4)n(Cc4ccc(C(F)(F)F)nc4)c3C[C@H]2CN1C(=O)c1ccccc1  composite z-score           2.25

Now take the following compound into account.
Task: Any idea what composite z-score was measured for C=C(C(=O)CC[C@H](OC(=O)c1ccccc1-c1ccccc1C(=O)O)c1ccc(OCCO)cc1)C(C)C ?
Output: 0.239

====

- studySystem: Neurogenic locus notch homolog protein 3 (Homo sapiens) (UniProt Q9UM47)
- Sequence (Q9UM47 whole entry, looked up): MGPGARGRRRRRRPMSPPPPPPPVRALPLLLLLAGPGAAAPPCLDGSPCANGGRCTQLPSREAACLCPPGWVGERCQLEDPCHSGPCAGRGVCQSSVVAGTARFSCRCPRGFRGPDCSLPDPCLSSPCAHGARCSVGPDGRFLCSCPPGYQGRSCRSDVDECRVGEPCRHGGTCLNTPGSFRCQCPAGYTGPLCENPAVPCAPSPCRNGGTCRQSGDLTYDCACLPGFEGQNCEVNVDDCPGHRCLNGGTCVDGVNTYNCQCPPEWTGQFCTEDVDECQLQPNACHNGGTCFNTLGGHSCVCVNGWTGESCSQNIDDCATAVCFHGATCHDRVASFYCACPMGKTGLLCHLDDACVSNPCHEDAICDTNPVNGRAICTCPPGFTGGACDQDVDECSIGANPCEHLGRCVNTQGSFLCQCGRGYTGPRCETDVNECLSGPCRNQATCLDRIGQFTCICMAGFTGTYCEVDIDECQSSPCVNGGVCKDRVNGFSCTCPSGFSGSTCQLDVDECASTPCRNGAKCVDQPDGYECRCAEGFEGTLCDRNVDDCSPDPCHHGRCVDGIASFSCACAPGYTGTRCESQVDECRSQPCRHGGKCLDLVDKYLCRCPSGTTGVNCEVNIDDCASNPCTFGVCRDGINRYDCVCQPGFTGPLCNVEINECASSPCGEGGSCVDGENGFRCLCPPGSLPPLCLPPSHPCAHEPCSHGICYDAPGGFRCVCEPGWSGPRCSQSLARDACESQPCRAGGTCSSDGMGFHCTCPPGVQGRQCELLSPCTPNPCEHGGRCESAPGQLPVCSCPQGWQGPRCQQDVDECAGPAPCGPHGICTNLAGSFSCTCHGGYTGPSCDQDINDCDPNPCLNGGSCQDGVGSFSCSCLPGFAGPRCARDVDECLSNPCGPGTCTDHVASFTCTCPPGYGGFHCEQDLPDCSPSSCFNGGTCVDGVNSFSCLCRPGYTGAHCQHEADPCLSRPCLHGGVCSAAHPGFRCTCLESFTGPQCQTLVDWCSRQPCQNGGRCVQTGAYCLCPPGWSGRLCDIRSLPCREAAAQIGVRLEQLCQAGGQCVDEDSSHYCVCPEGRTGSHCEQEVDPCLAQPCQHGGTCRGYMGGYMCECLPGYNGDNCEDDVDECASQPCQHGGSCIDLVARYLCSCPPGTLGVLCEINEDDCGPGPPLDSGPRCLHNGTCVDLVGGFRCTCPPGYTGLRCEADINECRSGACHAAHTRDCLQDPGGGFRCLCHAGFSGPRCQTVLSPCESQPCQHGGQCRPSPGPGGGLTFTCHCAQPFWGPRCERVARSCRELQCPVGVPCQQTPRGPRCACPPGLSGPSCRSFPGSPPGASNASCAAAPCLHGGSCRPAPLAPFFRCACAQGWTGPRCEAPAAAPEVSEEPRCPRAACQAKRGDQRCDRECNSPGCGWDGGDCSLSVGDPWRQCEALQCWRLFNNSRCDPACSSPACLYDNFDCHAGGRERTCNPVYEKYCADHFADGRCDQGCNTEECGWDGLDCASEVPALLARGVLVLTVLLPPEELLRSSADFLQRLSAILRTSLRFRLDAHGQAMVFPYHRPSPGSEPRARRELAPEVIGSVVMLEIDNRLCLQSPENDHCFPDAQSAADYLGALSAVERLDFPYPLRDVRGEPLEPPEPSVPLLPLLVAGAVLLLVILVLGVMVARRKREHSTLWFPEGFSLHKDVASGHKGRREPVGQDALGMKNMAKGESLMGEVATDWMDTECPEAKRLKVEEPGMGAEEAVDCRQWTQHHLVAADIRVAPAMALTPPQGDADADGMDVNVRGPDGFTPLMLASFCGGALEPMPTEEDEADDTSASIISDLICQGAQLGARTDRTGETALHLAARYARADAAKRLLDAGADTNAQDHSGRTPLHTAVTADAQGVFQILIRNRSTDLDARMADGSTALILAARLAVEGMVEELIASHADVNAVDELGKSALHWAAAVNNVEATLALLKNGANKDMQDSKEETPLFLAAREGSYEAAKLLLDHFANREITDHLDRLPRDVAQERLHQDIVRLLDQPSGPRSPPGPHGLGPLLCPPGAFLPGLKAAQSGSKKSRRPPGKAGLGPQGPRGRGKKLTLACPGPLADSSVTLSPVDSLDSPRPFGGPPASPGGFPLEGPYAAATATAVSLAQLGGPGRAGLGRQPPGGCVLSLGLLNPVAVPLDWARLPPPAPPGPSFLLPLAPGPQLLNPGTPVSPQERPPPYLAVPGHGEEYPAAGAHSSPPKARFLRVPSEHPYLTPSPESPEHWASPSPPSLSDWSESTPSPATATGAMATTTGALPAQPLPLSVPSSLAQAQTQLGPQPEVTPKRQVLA
- methodSummary: NOTCH3 binders on small-molecule microarray, primary screen, biochemical, 635/667 nm fluorescence (AID 1096)
- experimentalSetup: NOTCH3 binding, 635 nm fluorescence, higher = more signal
composite z-score for assorted compounds
Note: the reply should be a number with no unit written.

smilesData	parameter	valueObserved
C[C@@]1([C@@H](NS(=O)(=O)c2cccc3cccnc23)c2ccc(-c3ccccc3)cc2)C[C@H]1C1CCCCC1	composite z-score	0.818
C[C@]1(C(=O)NC2CC2)c2ccccc2C(=O)N(Cc2cc(F)cc(C(F)(F)F)c2)[C@H]1c1ccc(CO)cc1	composite z-score	0.518

Now take the following compound into account.
Task: Any idea what composite z-score was measured for COc1ccc(C#Cc2ccc3c(c2)[C@]2(C(=O)N3)[C@H](c3ccccc3OCCO)N3[C@H](c4ccccc4)[C@H](c4ccccc4)OC(=O)[C@H]3[C@@H]2C(=O)NC[C@H](O)c2ccccc2)cc1 ?
Output: 1.08

====

- methodSummary: S. cerevisiae RM11-1a growth modifiers, primary screen, strain RM11-1a, OD600, basal, 24 h (AID 1177);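 note: cultures grown under basal conditions with no added stressor; test concentration not given here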
- experimentalSetup: OD600, 24 h, higher = more signal, called active from +8 up or from −8 down
z-score for assorted compounds
Note: the reply should be a number with no unit written.

A selection of reference data follows.
> print(dat)
                                   compound  parameter  valueobserved
1  O=C1NC(=O)C2C1C=CC(C(O)C(O)CO)N2Nc1ccccn1 (stereo not given)    z-score         -0.645
2  C[N+](C)(C)CCCC[C@@H]1NC(=O)[C@H]2C[C@@H](C(=O)O)[C@@H](c3ccc(O)cc3)N2C1=O    z-score         -0.944
3       CCCCC(=C=CC[C@H](O)c1ccccc1OCCO)CCO    z-score          0.493

Task: Any idea what z-score was measured for COC(=O)[C@@]1(Cc2ccc(F)cc2)[C@H]2c3cc(C(=O)N(C)C)n(Cc4ccsc4Br)c3C[C@H]2CN1C(=O)c1ccccc1 ?
Output: 0.47

Task: Any idea what z-score was measured for [N-]=[N+]=NCc1ccccc1[C@H]1OC(c2ccc(OCCCO)cc2)=N[C@@]1(Cc1ccccc1N=[N+]=[N-])C(=O)O ?
Output: -0.123

====

composite z-score for assorted compounds
- Test system: glycogen synthase kinase-3 (GSK3A per assay name; protocol says GSK3B)
- methodSummary: GSK3 binders on small-molecule microarrays, primary screen, biochemical, small-molecule microarray, 635 nm fluorescence, GSK3A (AID 1103); note: the record names both GSK3A and GSK3B
- experimentalSetup: small-molecule microarray binding, fluorescence 635 nm; higher = more signal
Note: the reply should be a number with no unit written.

A selection of reference data follows.
> print(dat)
                                   compound  valueobserved
1  C[C@@]1([C@@H](NS(=O)(=O)c2cccc3cccnc23)c2ccc(-c3ccccc3)cc2)C[C@H]1C1CCCCC1         -0.472
2  CC1C2C(CCCO)=CC(C3C(=O)N(C(N)=O)C(=O)C23)N1Cc1cccc(OC(F)(F)F)c1 (stereo not drawn)          0.719
3  O=C(O)C1=CC[C@H]2C(=O)N(c3ccccc3)C(=O)[C@@H]12           1.04
4  COC(=O)[C@@]1(Cc2ccc(F)cc2)[C@H]2c3cc(C(=O)N4CCCC4)n(CCSCCO)c3C[C@H]2CN1C(=O)c1ccccc1         -0.273

Task: Any idea what composite z-score was measured for CN(C)C(=O)[C@]1(CCS(=O)(=O)c2ccccc2)N=C(c2ccc(OCCCO)cc2)O[C@@H]1c1ccccc1CN=[N+]=[N-] ?
Output: 1.24

Values were extracted from PubChem BioAssay.
